Where do these numbers come from? They come from patent US20220332795A1.

subject_of_test: T1, recombinant biotinylated CD71 extracellular domain (Sino Biologics) with an N-terminal 6His tag (human, UniProt P02786 89-760, biotinylated (site not stated))
T1 construct: extracellular domain; also called hCD71; huCD71 ECD
method_description: primary solution ELISA screen, signal on hCD71 over HSA
binders and their reported hCD71:HSA
Lab note: write the figure by itself, no unit.

binder | recorded_number
SEQ ID NO 25 (designed binder, not shown: small tags and cut ends, FN3 domain, hit of the apical domain panning) MLPAPKNLVVSRVTEDSARLSWTAPDAAFDSFPIWYLEKSYQGEAIVLTVPGSERSYDLTGLKPGTEYVVPIIGVKGGRDSCPLSAIFTT | 58
SEQ ID NO 63 (designed binder, not shown: small tags and cut ends, FN3 domain, hit of the apical domain panning) MLPAPKNLVVSRVTEDSARLSWTAPDAAFDSFCISYYERMGRGEAIVLTVPGSERSYDLTGLKPGTEYMVYIFGVKGGLNSLPLSAIFTT | 826
SEQ ID NO 96 (designed binder, not shown: small tags and cut ends, FN3 domain, hit of the apical domain panning) MSLPAPKNLVVSRVTEDSARLSWTAPDAAFDSFPIAYLEVFYEGEAIVLTVPGSERSYDLTGLKPGTEYQVPIEGVKGGAMSLPLSAIFTT | 48
SEQ ID NO 94 (designed binder, not shown: small tags and cut ends, FN3 domain, hit of the apical domain panning) MLPAPKNLVVSEVTEDSARLSWQGVARAFDSFLITYREQIFAGEVIVLTVPGSERSYDLTGLKPGTEYPVWIQGVKGGSPSAPLSAIFTT | 12
SEQ ID NO 90 (designed binder, not shown: small tags and cut ends, FN3 domain, hit of the apical domain panning) MLPAPKNLVVSRVTEDSARLSWQGVARAFDSFLITYREQIFAGEVIVLTVPGSERSYDLTGLKPGTEYPVWIQGVKGGSPSAEFTT | 46
SEQ ID NO 29 (designed binder, not shown: small tags and cut ends, FN3 domain, hit of the apical domain panning) MLPAPKNLVVSRVTEDSARLSWTAPDAAFDSFWIEYWEAVGFGEAIVLTVPGSERSYDLTGLKPGTEYFVGIYGVKGGYLSAPLSAIFTT | 580

Lookup result for SEQ ID NO 48 (designed binder, not shown: small tags and cut ends, FN3 domain, hit of the apical domain panning) MLPAPKNLVVSRVTEDSARLSWTAPDAAFDSFLIYYEEGYLEYYYSGEAIVLTVPGSERSYDLTGLKPGTEYYVGIVGVKGGGLSGPLSAISTT ; measured hCD71:HSA: 26

Lookup result for SEQ ID NO 42 (designed binder, not shown: small tags and cut ends, FN3 domain, hit of the apical domain panning) MLPAPKNLVVSRVTEDSARLSWTAPDAAFDSFLIPYAETSPSGEAIVLTVPGSERSYDLTGLKPGTEYSVLIHGVKGGDYSEPLSAIFTT ; measured hCD71:HSA: 586

Lookup result for SEQ ID NO 35 (designed binder, not shown: small tags and cut ends, FN3 domain, hit of the apical domain panning) MLPAPKNLVVSRVTEDSARLSWTAPDAAFDSFPISYIESIADGEAIVLTVPGSERSYDLTGLKPGTEYWVAIVGVKGGPFSWSLSAIVTT ; measured hCD71:HSA: 106
